# test.name: binders of probe aFGF2 on microarray, primary screen, stem cell growth factor project, biochemical, small-molecule microarray, fluorescence 635/667 (AID 1067);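 note: measures binding of biotinylated aFGF2 protein to printed compounds on slides; z-score merges feature fluorescence and signal-to-noise across triplicate slides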
# condition.description: higher = more signal
Tag: yes if measured composite z-score is not below 0.02, no if it is.

• COCCOC(=O)N1C(=O)[C@@]2(c3cc(C#CC4=CCCCC4)ccc31)[C@H](c1ccc(O)cc1)N1[C@H](c3ccccc3)[C@H](c3ccccc3)OC(=O)[C@H]1[C@@H]2C(N)=O = no
• COCCOC(=O)N1C(=O)[C@@]2(c3cc(C#Cc4ccc(OC)cc4)ccc31)[C@H](C(=O)N1CCCCCCC1)[C@H]1C(=O)O[C@H](c3ccccc3)[C@H](c3ccccc3)N1[C@@H]2c1ccc(OCCO)cc1 = yes
• CN1C(=O)C2C=CC(C(O)c3cc(C(F)(F)F)cc(C(F)(F)F)c3)N(N3CCCCC3)C2C1=O (configuration not stated) = no
• O=C1NC(=O)C2C1C=CC(C(O)c1ccccc1)N2Nc1ccc(Cl)cc1Cl (configuration not stated) = yes
• CCOC(=O)C[C@H]1[C@H](OC(=O)Cc2ccc3c(c2)OCO3)[C@@H](NC(=O)c2ccc3ccccc3c2)c2cc(OCCCO)ccc2N1C(=O)c1ccccc1 = no
• C#CCN(CC=C(C)C)[C@H](CO)c1ccccc1 = no
• COCCOC(=O)N1C(=O)[C@@]2(c3ccccc31)[C@H](c1ccccc1OCCO)N1[C@H](c3ccccc3)[C@H](c3ccccc3)OC(=O)[C@H]1[C@@H]2C(=O)Nc1nc2ccccc2s1 = no

###

# test.name: cell viability in Huh7 cells, primary screen, cytotoxicity control for HCV replication inhibitor project, CellTiter-Glo luminescence, basal, 48 h (AID 1143);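 note: Huh7 hepatoma cells carrying a hepatitis C replication reporter with no stimulus; test concentration not given here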
# condition.description: Huh7 HCV replicon, called active from +8 up or from −8 down
Active and inactive are the calls of the source.
Outcomes: active, inactive

- COCC(=C=CC[C@H](O)c1ccccc1OCCO)C[C@H](O)c1cc(Cl)cc(Cl)c1O: active
- CC(=O)n1cc(C(O)C2C=CC3C(=O)N(C)C(=O)C3N2Nc2ccccc2)c2ccccc21 (configuration not stated): inactive
- O=C1O[C@H](c2ccccc2)[C@H](c2ccccc2)N2[C@H]1[C@@H](C(=O)Nc1nc3ccccc3s1)[C@]1(C(=O)Nc3ccc(C#CC4(O)CCCCCC4)cc31)[C@H]2c1ccc(OCCO)cc1: inactive
- CC(C)c1ccc(NN2C(C(O)C(c3ccccc3)c3ccccc3)C=CC3C(=O)N(c4ccccc4)C(=O)C32)cc1 (configuration not stated): inactive
- CC(C)[C@@H](CO)NC(=O)[C@H]1[C@@H](c2ccccc2)N(c2ccccc2)O[C@@H]1C: inactive
- Cc1ccc(S[C@]2(C(=O)NCC(C)C)CC(=O)N(Cc3cc(C(F)(F)F)cc(C(F)(F)F)c3)[C@@H]2c2ccc(CO)cc2I)cc1: inactive
- O=C1NC(=O)C2C1C=CC(C(O)C(c1ccccc1)c1ccccc1)N2Nc1ccc(Cl)cc1Cl (configuration not stated): inactive

###

# assayed.target: NADPH oxidase 2 (Homo sapiens) (UniProt P04839)
# Sequence (P04839 whole entry, looked up): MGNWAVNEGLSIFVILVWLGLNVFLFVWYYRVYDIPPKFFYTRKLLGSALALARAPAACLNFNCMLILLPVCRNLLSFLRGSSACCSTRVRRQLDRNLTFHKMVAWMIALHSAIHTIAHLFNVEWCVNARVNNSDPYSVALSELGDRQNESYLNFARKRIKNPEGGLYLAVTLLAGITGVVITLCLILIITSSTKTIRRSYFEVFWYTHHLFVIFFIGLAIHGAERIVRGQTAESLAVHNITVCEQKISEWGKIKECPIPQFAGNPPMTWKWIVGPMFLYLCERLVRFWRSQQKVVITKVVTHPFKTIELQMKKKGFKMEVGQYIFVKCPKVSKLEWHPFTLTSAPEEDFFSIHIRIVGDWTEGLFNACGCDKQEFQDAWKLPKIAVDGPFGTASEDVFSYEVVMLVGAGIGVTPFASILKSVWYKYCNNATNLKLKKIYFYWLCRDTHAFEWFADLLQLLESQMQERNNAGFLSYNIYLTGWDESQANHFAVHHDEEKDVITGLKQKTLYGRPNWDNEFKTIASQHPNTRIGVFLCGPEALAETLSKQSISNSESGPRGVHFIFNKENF
# test.name: NOX2-dependent H2O2 signal modulators, primary screen, NOX inhibitor project, cell-based, HEK293-NOX2, PMA-stimulated, Amplex Red fluorescence (AID 1159); note: test concentration not given here
# condition.description: 45 min, higher = more signal, called active from +8 up or from −8 down
Tag: t if measured z-score is not below 0.1, f if it is.

* CCOC(=O)C[C@H]1[C@H](OC(=O)Cc2ccc3c(c2)OCO3)[C@@H](NC(=O)c2ccc(-c3ccccc3)cc2)c2cc(OCCCO)ccc2N1C(=O)Cc1ccc(OC)cc1 | f
* C=CC[C@]1(C(=O)N2CCCCC2)N=C(c2ccc(OCCCO)cc2)O[C@H]1c1ccccc1 | t
* CC1CC/C=C\[C@H]2OC34C=CCN(Cn5nnc6ccccc65)C(=O)[C@H]3N(C(CO)C(C)C)C(=O)[C@@H]4C2C(=O)O1 (stereo not given in full) | t
* CCCCC(=C=CC[C@@H](O)c1ccccc1OCCO)CCO | f
* CCOC(=O)C=Cc1cc([N+](=O)[O-])ccc1O | f
* CC(C)C(CO)N1C(=O)[C@@H]2[C@H]3C(=O)OCC=C[C@H]3OC23C=CCN(C(C)C)C(=O)[C@@H]13 (stereo not given in full) | t
* CCOC1=C2C(CN(S(=O)(=O)c3ccc(C)cc3)C2c2ccc(C)cc2)C2C(=O)N(c3ccccc3)C(=O)C2C1 (stereo not given) | t
* C=C(CCCC)/C(=C/C[C@@H](OC(C)=O)c1ccccc1OCCO)c1cnc2ccccc2c1 | f
* CC(C)C[C@H]1NC(=O)[C@@]23C(=O)N[C@@H](Cc4ccccc4)C2[C@H](C)[C@@]2(C)O[C@H]2C3/C=C/C/C=C\CNC(=O)[C@H](Cc2ccccc2)NC1=O (stereo not given in full) | t
* CCOC(=O)[C@H]1C/C=C/C[C@H](C(=O)OCC)C(=O)O[C@H]2[C@@H](OC)O[C@H](CO)[C@@H](OC(=O)Nc3ccc(C#N)cc3)[C@@H]2OC1=O | f
* C=CCC(OC(C)=O)[C@@H]1[C@@H](N(Cc2ccc(-c3cccc(C(F)(F)F)c3)o2)C(=O)Cc2ccc(F)cc2)c2cc(OCCCO)ccc2N1C(=O)Cc1ccc(OC)cc1 (stereo not given in full) | f
* CN1C(=O)C2C=CC(C(O)C3=C[C@H]4C[C@@H](C3)C4(C)C)N(Nc3ccccc3)C2C1=O (stereo not given in full) | f
* O=C1NC(=O)C2C1C=CC(C(O)c1cccc3ccccc13)N2Nc1ccccn1 (stereo not given) | f
* C=CCN1C(=O)[C@]2(O[C@H](CCO)[C@@H]([Si](C)(C)c3ccc(OC)cc3)[C@@H]2C)c2cc(N3C(=O)c4cccc5cccc3c45)ccc21 | t

###

# test.name: Plasmodium falciparum growth inhibition, primary screen, strain 3D7, DAPI fluorescence, 100 nL (AID 1184);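 note: parasites grown inside human red blood cells in medium with human serum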
# condition.description: P. falciparum 3D7 growth, 3 d, higher = more signal
Tag: MET if measured z-score is not below -0.8, NOT MET if it is.

- O=C1O[C@@H](c2ccccc2)[C@@H](c2ccccc2)N2[C@@H](c3ccc(OCCO)cc3)[C@]3(C(=O)Nc4ccccc43)[C@@H](C(=O)NC[C@H](O)c3ccccc3)[C@H]12: MET
- CC(C)N1C(=O)c2ccccc2[C@](C)(C(=O)NCc2ccccc2)[C@@H]1c1ccc(CO)cc1: MET
- CCCCC(=C=CC[C@@H](O)c1ccccc1OCCO)CCO: NOT MET
- C=CCC(OC(C)=O)[C@@H]1[C@@H](N(Cc2ccc(-c3ccccc3)cc2)C(=O)Cc2ccc(F)cc2)c2cc(OCCCO)ccc2N1C(=O)c1ccc(-c2ccccc2)cc1 (some centres not stated): NOT MET
- COCCOC(=O)N1C(=O)[C@@]2(c3cc(C#CCCO)ccc31)[C@H](c1ccc(OCCO)cc1)N1[C@H](c3ccccc3)[C@H](c3ccccc3)OC(=O)[C@H]1[C@@H]2C(=O)N1CCN(c2ncccn2)CC1: NOT MET
- [N-]=[N+]=Nc1ccccc1C[C@@]1(C(=O)NCCN2CCOCC2)N=C(c2ccc(OCCCO)cc2)O[C@@H]1c1ccccc1: NOT MET
- COc1ccc(C(O)C2C=CC3C(=O)NC(=O)C3N2Nc2ccccn2)c2ccccc12 (configuration not stated): MET

###

Each entry below lists one item and its recorded composite z-score value.
# assayed.target: Fibroblast growth factor 2 (Homo sapiens) (UniProt P09038)
# Sequence (P09038 whole entry, looked up): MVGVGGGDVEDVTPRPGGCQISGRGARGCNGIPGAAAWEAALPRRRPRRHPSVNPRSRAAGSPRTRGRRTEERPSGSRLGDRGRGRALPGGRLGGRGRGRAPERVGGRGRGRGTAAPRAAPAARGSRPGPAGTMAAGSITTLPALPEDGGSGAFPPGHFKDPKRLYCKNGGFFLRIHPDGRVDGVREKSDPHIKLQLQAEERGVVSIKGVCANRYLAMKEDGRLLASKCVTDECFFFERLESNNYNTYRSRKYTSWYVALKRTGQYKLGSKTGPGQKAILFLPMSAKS
# test.name: FGF2 binders on small-molecule microarrays, primary screen, biochemical, small-molecule microarray, 635/667 nm fluorescence (AID 1133)
# condition.description: small-molecule microarray binding, FGF2, fluorescence 635/667; higher = more signal
measurement.kind: composite z-score

- COCCOC(=O)N1C(=O)[C@@]2(c3cc(C#CC4=CCCCC4)ccc31)[C@H](C(=O)N1CCc3cc(OC)c(OC)cc3C1)[C@H]1C(=O)O[C@H](c3ccccc3)[C@H](c3ccccc3)N1[C@@H]2c1ccc(OCCO)cc1: 1.16
- CC[C@@H]1C=C(C(=O)O)[C@H](c2ccco2)N1S(=O)(=O)c1ccc(C)cc1: -0.152
- COc1ccc(C(=O)O[C@H]2CC[C@]3(C)C4=C(CCC3C2(C)C)[C@]2(C)CC[C@H]([C@H](C)CCCC(C)C)[C@@]2(C)CC4)cc1 (stereo partly specified): 0.483
- C=CC[C@@]1(C(=O)N(C)C)N=C(c2ccc(OCCCO)cc2)O[C@@H]1c1ccccc1N=[N+]=[N-]: 0.26
- COCCOC(=O)N1C(=O)[C@@]2(c3cc(C#Cc4ccc(OC)cc4)ccc31)[C@H](c1ccc(O)cc1)N1[C@H](c3ccccc3)[C@H](c3ccccc3)OC(=O)[C@H]1[C@@H]2C(=O)NC[C@H](O)c1ccccc1: 1.4
- [N-]=[N+]=NCc1ccccc1[C@H]1OC(c2ccc(OCCCO)cc2)=N[C@@]1(Cc1ccccc1)C(=O)NCc1ccccc1: 0.0948
